These measurements were taken from patent US11472815B2.

test.system: TLR1/2 (Homo sapiens (Human), UniProt O60603+Q15399)
Sequence (Q15399 25-786): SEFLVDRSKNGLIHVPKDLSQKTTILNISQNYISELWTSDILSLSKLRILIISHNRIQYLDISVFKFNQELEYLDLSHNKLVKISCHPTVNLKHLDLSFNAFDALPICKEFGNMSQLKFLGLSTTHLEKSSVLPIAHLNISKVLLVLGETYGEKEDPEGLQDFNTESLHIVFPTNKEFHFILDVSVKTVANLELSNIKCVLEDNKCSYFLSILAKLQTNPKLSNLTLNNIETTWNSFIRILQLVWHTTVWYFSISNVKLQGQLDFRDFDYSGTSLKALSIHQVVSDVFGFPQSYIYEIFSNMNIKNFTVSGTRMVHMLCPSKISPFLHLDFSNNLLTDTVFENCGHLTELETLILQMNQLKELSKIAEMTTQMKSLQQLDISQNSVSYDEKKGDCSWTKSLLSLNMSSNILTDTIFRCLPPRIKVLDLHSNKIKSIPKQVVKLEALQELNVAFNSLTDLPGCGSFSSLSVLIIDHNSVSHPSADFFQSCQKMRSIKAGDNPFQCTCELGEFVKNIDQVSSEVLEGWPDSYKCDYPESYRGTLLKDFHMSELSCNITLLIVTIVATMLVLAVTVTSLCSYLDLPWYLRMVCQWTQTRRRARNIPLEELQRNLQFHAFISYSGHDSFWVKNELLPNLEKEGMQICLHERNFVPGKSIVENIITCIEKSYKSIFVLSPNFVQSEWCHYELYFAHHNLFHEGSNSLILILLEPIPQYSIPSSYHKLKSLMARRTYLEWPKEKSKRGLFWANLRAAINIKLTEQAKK
Sequence (O60603 19-784): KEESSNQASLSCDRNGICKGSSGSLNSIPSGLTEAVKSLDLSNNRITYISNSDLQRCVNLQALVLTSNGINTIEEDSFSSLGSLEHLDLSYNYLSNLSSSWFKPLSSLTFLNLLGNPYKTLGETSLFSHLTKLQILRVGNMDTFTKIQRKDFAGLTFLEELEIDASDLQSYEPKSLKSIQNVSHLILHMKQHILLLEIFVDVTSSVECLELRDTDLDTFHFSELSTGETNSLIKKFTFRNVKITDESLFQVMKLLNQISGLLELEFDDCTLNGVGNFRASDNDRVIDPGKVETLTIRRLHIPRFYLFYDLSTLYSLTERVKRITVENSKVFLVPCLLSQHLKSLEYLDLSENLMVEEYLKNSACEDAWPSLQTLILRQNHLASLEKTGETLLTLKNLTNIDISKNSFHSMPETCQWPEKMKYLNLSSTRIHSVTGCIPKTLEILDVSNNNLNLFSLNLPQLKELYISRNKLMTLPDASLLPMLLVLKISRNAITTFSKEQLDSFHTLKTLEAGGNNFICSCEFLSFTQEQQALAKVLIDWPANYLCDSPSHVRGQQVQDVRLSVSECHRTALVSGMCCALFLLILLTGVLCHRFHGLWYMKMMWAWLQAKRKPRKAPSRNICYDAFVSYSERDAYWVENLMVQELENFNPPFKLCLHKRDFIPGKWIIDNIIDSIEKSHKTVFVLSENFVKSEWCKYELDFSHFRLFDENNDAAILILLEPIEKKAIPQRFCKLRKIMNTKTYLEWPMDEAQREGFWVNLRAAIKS
procedure.details: Detection of TLR1/2 activation activity (SEAP signal) using TLR1/2 HEK BLUE cells
test.parameters: HEK BLUE TLR1/2 cells, 24 hours, SEAP read at 620 nm; highest concentration 100 μM; [‡] highest SEAP signal less than 50% of the activation value of compound 22
endpoint.label: log10(EC50) (log10 of the value in nM)
// stored as log10 of EC50 expressed in nM

# input compound: CNc1ccc([N+](=O)[O-])cc1-n1cnc(-c2ccc(C(F)(F)F)cc2OC)c1 [Compound 28] ; wanted: its log10(EC50)
1.97

Moving on to CNC(=O)c1ccc(NC)c(-n2cnc(-c3ccc(C(F)(F)F)cc3O)c2)c1 [Compound 25]
1.66

Then this compound: CNc1ccc([N+](=O)[O-])cc1-n1cnc(-c2ccc(C(F)(F)F)cc2O)c1 [Compound 22]
0.69

What do we get for CNc1ccc(C(=O)OC)cc1-n1cnc(-c2ccc(C(F)(F)F)cc2O)c1 [Compound 24] ?
2.64

# iterate: CNc1ccc([N+](=O)[O-])cc1-n1cnc(-c2ccc(C(F)(F)F)cc2OC(=O)/C=C/c2ccccc2)c1 [Compound 39]
1.08
